Origin of the recorded values: patent US20070254831A1

System tested: T1, soluble human FcRn (human, UniProt P55899 24-297; P61769 21-119, biotinylated (Sulfo-NHS-LC-Biotin) in the ELISA; amine-coupled to CM5 chip in SPR)
T1 construct: also called shFcRn; biotinylated shFcRn
T1 sequence (P55899 24-297 limits assumed, chain 1 of 2): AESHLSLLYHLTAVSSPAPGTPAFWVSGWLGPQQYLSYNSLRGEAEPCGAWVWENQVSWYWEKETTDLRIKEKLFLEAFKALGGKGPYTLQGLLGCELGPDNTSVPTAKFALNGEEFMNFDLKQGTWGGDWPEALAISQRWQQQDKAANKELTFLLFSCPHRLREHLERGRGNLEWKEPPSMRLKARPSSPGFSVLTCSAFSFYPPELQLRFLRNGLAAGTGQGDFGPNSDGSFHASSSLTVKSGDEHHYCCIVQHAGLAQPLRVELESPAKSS
T1 sequence (P61769 21-119 limits assumed, chain 2 of 2): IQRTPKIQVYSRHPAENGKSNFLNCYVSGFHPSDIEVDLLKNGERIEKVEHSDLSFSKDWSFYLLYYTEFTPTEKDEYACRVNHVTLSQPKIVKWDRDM
Assay remarks: SPR, pH 6
Square brackets hold non-standard residues; d marks the D form. Ends that are not written are not given here.
Readout kind: pKd
The value called pKd is obtained by taking minus log10 of the concentration in mol/L.

Given the binder RFVTGHFG[dP]WYPA-NH2 (N-terminus assumed; SMILES CC(C)[C@H](NC(=O)[C@H](Cc1ccccc1)NC(=O)[C@@H](N)CCCNC(=N)N)C(=O)N[C@H](C(=O)NCC(=O)N[C@@H](Cc1c[nH]cn1)C(=O)N[C@@H](Cc1ccccc1)C(=O)NCC(=O)N1CCC[C@@H]1C(=O)N[C@@H](Cc1c[nH]c2ccccc12)C(=O)N[C@@H](Cc1ccc(O)cc1)C(=O)N1CCC[C@H]1C(=O)N[C@@H](C)C(N)=O)[C@@H](C)O) [Peptide No. 246] , what is its reported pKd? 5.44
